Tested on: IMR-32 cell line
Assay: MTT cell proliferation assay, IMR-32
Format: cell-based, human
Conditions: Homo sapiens; IMR-32; rilpivirine alone; 72 hours
REPORTED_ENDPOINT: pIC50
Lab note — pIC50 values are minus log10 of concentrations in M.

// pIC50 lookup, molecule = Cc1cc(/C=C/C#N)cc(C)c1Nc1ccnc(Nc2ccc(C#N)cc2)n1 , result: 5.53

---

Tested on: CHP-212
Assay: EC50 in cancer cell line, rilpivirine alone
Type: cell-based
Details: Homo sapiens, Neuroblastoma
REPORTED_ENDPOINT: pEC50
Lab note — pEC50 values are minus log10 of concentrations in M.

// pEC50 lookup, compound = Cc1cc(/C=C/C#N)cc(C)c1Nc1ccnc(Nc2ccc(C#N)cc2)n1 , result: 5.49

---

Tested on: MOLT-16
Assay: EC50 in cancer cell line, rilpivirine alone
Assay type: cell-based
Details: Homo sapiens, Acute lymphoblastic leukemia
REPORTED_ENDPOINT: pEC50
Lab note — pEC50 values are minus log10 of concentrations in M.

// pEC50 lookup, compound = Cc1cc(/C=C/C#N)cc(C)c1Nc1ccnc(Nc2ccc(C#N)cc2)n1 [rilpivirine] , result: 5.47

---

System: Caki-2
Assay: EC50 in cancer cell line, rilpivirine alone
Assay type: cell-based
Conditions: Homo sapiens, Kidney
REPORTED_ENDPOINT: EC50
Note to self: number, then unit, no commentary.

Fill in: Caki-2 EC50 for Cc1cc(/C=C/C#N)cc(C)c1Nc1ccnc(Nc2ccc(C#N)cc2)n1 [rilpivirine] = 4.05 µM

---

System: ST486
Assay: EC50 in cancer cell line, rilpivirine alone
Assay type: cell-based
Conditions: Homo sapiens, Burkitt's lymphoma
REPORTED_ENDPOINT: pEC50
Lab note — pEC50 values are minus log10 of concentrations in M.

// pEC50 lookup, molecule = Cc1cc(/C=C/C#N)cc(C)c1Nc1ccnc(Nc2ccc(C#N)cc2)n1 [rilpivirine] , result: 5.42

---

System: EM-2
Experiment: EC50 in cancer cell line, rilpivirine alone
Type: cell-based
Settings: Homo sapiens, Chronic myelogenous leukemia
REPORTED_ENDPOINT: EC50

// EC50 lookup, compound = Cc1cc(/C=C/C#N)cc(C)c1Nc1ccnc(Nc2ccc(C#N)cc2)n1 , result: 3.96 µM

---

Tested on: T47D
Experiment: EC50 in cancer cell line, rilpivirine alone
Type: cell-based
Settings: Homo sapiens, Breast
REPORTED_ENDPOINT: pEC50
Lab note — pEC50 values are minus log10 of concentrations in M.

// pEC50 lookup, molecule = Cc1cc(/C=C/C#N)cc(C)c1Nc1ccnc(Nc2ccc(C#N)cc2)n1 , result: 5.49

---

Tested on: JVM-2
Assay: EC50 in cancer cell line, rilpivirine alone
Type: cell-based
Details: Homo sapiens, Mantle cell lymphoma
REPORTED_ENDPOINT: EC50 (nM)
Kindly answer with a numeric value in nM, unit omitted.

// EC50 lookup, molecule = Cc1cc(/C=C/C#N)cc(C)c1Nc1ccnc(Nc2ccc(C#N)cc2)n1 , result: 2740

---

System: J-RT3-T3-5
Assay: EC50 in cancer cell line, rilpivirine alone
Format: cell-based
Settings: Homo sapiens, Acute T-cell leukemia
REPORTED_ENDPOINT: pEC50
Lab note — pEC50 values are minus log10 of concentrations in M.

// pEC50 lookup, compound = Cc1cc(/C=C/C#N)cc(C)c1Nc1ccnc(Nc2ccc(C#N)cc2)n1 [rilpivirine] , result: 5.39
